- tested.target: recombinant form of Glutaminase 1 (GAC) (Homo sapiens)
- Sequence (O94925 137-598 isoform O94925-3 limits assumed): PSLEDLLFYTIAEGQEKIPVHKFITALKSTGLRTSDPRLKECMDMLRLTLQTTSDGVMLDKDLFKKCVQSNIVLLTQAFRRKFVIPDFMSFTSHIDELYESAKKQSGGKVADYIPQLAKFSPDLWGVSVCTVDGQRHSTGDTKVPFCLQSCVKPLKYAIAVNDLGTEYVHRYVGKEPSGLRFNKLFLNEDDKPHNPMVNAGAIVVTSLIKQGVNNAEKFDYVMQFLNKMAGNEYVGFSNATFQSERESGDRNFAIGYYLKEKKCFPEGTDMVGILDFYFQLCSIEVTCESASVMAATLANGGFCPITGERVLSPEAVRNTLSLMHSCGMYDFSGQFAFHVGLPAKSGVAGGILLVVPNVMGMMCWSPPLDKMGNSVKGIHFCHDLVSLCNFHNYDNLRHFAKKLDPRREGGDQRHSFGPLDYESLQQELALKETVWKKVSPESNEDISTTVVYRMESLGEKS
- assay.protocol: Recombinant Enzyme Assay - Time Dependence (60 min preincubation)
- Type: biochemical
- test.context: read-out: GAC Delta N2 IC50 60 min preinc
measured.attribute: IC50 (nM)
Reply numerically in nM, unit not repeated.

In plain terms, `NCCc1cccc(CC(=O)Nc2nnc(CCCCc3ccc(NC(=O)Cc4ccccc4)nn3)s2)c1` has a documented IC50 of 11

compound O=C(Cc1ccccc1)Nc1nnc(CCCCc2ccc(NC(=O)C(O)c3ccccc3)nn2)s1 (stereo not shown) , IC50 observed: 30

// sample `CN1CCC(Oc2cccc(CC(=O)Nc3nnc(CCCCc4ccc(NC(=O)Cc5ccccc5)nn4)s3)c2)CC1` , its IC50 was 10

response.value for `CC(=O)Nc1ccc(CCCCc2nnc(NC(=O)Cc3cccc(CNC(=O)c4ccccc4)c3)s2)nn1` (field: IC50) = 5

----------
- tested.target: recombinant form of Glutaminase 1 (GAC) (Homo sapiens)
- assay.protocol: Recombinant Enzyme Assay (no preincubation);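 note: GDH-coupled GAC activity read as absorbance at 340 nm in kinetic mode over 15 min at 20 °C, slopes compared with a DMSO-only control, lower slope means inhibition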
- Type: biochemical
- test.context: read-out: GAC Delta N2 IC50 no preinc
measured.attribute: pIC50
# pIC50 = -log10(concentration in molar units)

pIC50 recorded for this molecule, COc1cccc(CC(=O)Nc2nnc(CCSCc3nnc(NC(=O)Cc4cccc(OC)c4)s3)s2)c1 [Compound 250] , is 6.92

Quick note, pIC50 for CCOC(=O)NCc1cccc(CC(=O)Nc2ccc(CCCCc3nnc(NC(=O)Cc4ccccc4)s3)nn2)c1 [Compound 384] landed at 7.09

Entry under test: O=C(Cc1ccccc1)Nc1ccc(CCCCc2nnc(NC(=O)OCc3ccccc3)s2)nn1 [Compound 386] . Its pIC50 was 7.07

The value of pIC50 measured for the molecule O=C(Cc1cccc(OCCN2CCOCC2)c1)Nc1nnc(CCCCc2nnc(NC(=O)Cc3cccc(OCCN4CCOCC4)c3)s2)s1 [Compound 241] turned out to be 6.42

// field: pIC50; key: O=C(Cc1cccc2ncccc12)Nc1nnc(CCCCc2nnc(NC(=O)Cc3cccc4ncccc34)s2)s1 [Compound 641] ; value = 6.85

// O=C(O)Cc1cccc(CC(=O)Nc2nnc(CCCCc3nnc(NC(=O)Cc4cccc(CC(=O)O)c4)s3)s2)c1 [Compound 313] : pIC50 value = 6.57

Per the record, O=C(Cc1cccc2cnccc12)Nc1nnc(CCCCc2nnc(NC(=O)Cc3cccc4cnccc34)s2)s1 [Compound 639] has pIC50 of 6.77

Entry O=C(Cc1ccccn1)Nc1nnc(CCCCc2nnc(NC(=O)Cc3ccccn3)s2)s1 [Compound 307] — recorded pIC50 = 5.19

GET /value?item= NCc1cccc(CC(=O)Nc2ccc(CCCCc3nnc(NC(=O)Cc4ccccc4)s3)nn2)c1 [Compound 368] &field=pIC50 returns 6.96

The measured pIC50 associated with CCOC(=O)Nc1nnc(CCCCc2nnc(NC(=O)Cc3ccccc3)s2)s1 [Compound 244] reads 6.08

Briefly, pIC50 measured for O=C(Cc1ccccc1)Nc1nnc(CCCCc2ccc(NC(=O)C(O)c3ccccc3)nn2)s1 (stereo not drawn) [Compound 364] : 6.82

Note to self: pIC50 recorded for CC(C)(C)OC(=O)NCc1cccc(CC(=O)Nc2nnc(CCCCc3nnc(NC(=O)Cc4ccccc4)s3)s2)c1 [Compound 375] was 6.42

Record O=C(Cc1ccccc1)Nc1ccc(CCCCc2nnc(NC(=O)Cc3ccc(O)c(Cl)c3)s2)nn1 [Compound 336] , field pIC50: 7.17

// O=C(Cc1cccc(OCCO)c1)Nc1nnc(CCCCc2nnc(NC(=O)Cc3cccc(OCCO)c3)s2)s1 [Compound 235] : pIC50 value = 6.96
